Origin of the recorded values: patent US20250333523A1

I'd appreciate it if you could supply ELISA binding ratio (fold-change over background) values for the items below.
- measurementTarget: T1, Avi/HisMsIL18BPd (recombinant mouse IL-18BP with Avi and poly-His tags) (mouse, biotinylated with BirA on the Avi tag in some assays)
- T1 construct: also called murine IL-18BP; IL-18BP-Avi-His (mouse)
- T1 chain: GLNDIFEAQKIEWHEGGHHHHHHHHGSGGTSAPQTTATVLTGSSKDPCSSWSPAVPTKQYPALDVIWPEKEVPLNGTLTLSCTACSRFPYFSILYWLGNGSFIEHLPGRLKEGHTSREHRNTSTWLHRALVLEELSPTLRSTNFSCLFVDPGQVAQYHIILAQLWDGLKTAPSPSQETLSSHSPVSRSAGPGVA
- procedureSummary: ELISA, coated IL-18BP
I only need the number, in fold over background, no unit after it.

Qu. Which measured ELISA binding ratio (fold-change over background) value corresponds to anti-IL18BP antibody BP-10 (antibody, human IgG1, V domains shown) VH: QVQLQQPGAERVEPGASVRLSCKTSGYTFTNYWMHWVKQRPGQGLEWIGMIHPESGSTNNNEKFKSKATLTVDKSSSTAYMQLSSLTSEDSAVYYCARWDRGYFDYWGQGTTLTVSS VL: DIVMTQSHKFMSTSVGDRVSITCKASQDVRSTVGWYQQRPGQSPKLLIYWTSTRHTGVPDRFTGSGSGTDYTLTISSVQAEDLALYYCQQHYSTPYTFGGGTTLEIK ?
Ans. 40.8

Qu. Also anti-IL18BP antibody BP-07 (antibody, human IgG1, V domains shown) VH: EVQLQQSGPELVKPGASVKISCRASGFTITDYNMDWVRQSHGKSLEWIGNINLNNGGSIYNQKFKGKATLTIDKSSSTAYMELRSLTSEDTAVYYCARSDTTVVASRYYAMDYWGQGTSVTVSS VL: DIVLTQSPASLAMSLGKRATISCRASESVSIIGTNLIHWYQQKPGQPPKLLIYHASNLETGVPVRFSGSGSRTDFTLTIDPVEEDDVAIYYCLQSRKIPPTFGGGTKLEIK , if possible.
Ans. 39.3

Qu. Also anti-IL18BP antibody BP-06 (antibody, human IgG1, V domains shown) VH: QIQLQQSGPELVKPGASVKISCKASGYTFTDYYLNWVKQTPGQGLEWIGWIYPGSGNTKYTEKFKDKASLTVDTSSNTAYMQLSSLTSDDTAVYFCARRGVAWFAYWGQGTLVTVSA VL: DIKMTQSPSSIYASLGERVTITCKASQDINSYLSWFQQKPGKSPKTLIHRANRLVDGVPSRFSGSGSGQDYSLTISSLEYEDMGIYYCLQHDDFPPTFGAGTNLELK , if possible.
Ans. 1.2

Qu. Also anti-IL18BP antibody BP-01 (antibody, human IgG1, V domains shown) VH: QVQLQQSGPEVVRPGVSVKISCKGSGYTFTDFAMYWVKQSHAKSLEWIGVISTDNGDTSYNQKFKGKATMTVDKSSSTAYMELDRLTSEDSAIYYCARSRGPFDYWGQGTALTVSS VL: DIVMTQSHKFKSTSVGDRVNITCKASQDVGTAVAWYQQKPGQSPKLLIYWASTRHIGVPDRFTGSGSGTDFTLTIRNVQSEDLADYFCQRYSSYPWTFGGGTKLEIK , if possible.
Ans. 36.7

Qu. Also anti-IL18BP antibody BP-12 (antibody, human IgG1, V domains shown) VH: EVQLQQSGPELVKPGASVKMSCKTSGYTFTEYTMHWVKQSHGKSLEWIGGVNPNNGGTTYNQKFRDKATLTVDKSSSTTYMEVRTLTSDDSAVYYCAPLWRVFDYWGQGTTLTVSS VL: DIVMTQSHKFMSSSVGDRVSITCKASQDVGTAVAWYQQKPGQSPKLLIYWASTRHTGVPDRFTGSGSGTDFTLTISNVQSEDLADYFCHQFSRYPLTFGAGTKLELK , if possible.
Ans. 34.2
